System: MDA-MB-435 melanoma
experiment: NCI-60 one-dose screen, 48 h (100 = growth as untreated, 0 = no growth, -100 = all killed)
condition-context: 10 µM unless noted
About 83,000 compounds went through this panel and 20% of them were active in at least one assay; those are over-represented in the sample as a whole.
I'd be grateful if you could share measured growth for these entries.
// units = %; emit number, no label

What does the data say about its growth? Entry: `O=C1c2ccccc2C(=O)c2c1oc1c2c(=O)[nH]c2ccccc21`
83.7

Requested field: growth. Item: `COc1cc(NC(=O)Nc2cnc(Nc3ccc(N4CCOCC4)cc3)nc2Oc2ccc(F)cc2)cc(OC)c1`
88.3

Return reported growth; argument: `CCSc1nc(Cl)c(C#N)c(-c2ccc(F)cc2)n1`
91.8

Data request, read-out growth, for COc1ccc(C2C(c3ccccc3)C(=O)N2c2cc(OC)c(OC)c(OC)c2)cc1I (stereo not given)
2.2

Give the measured growth of `CCOC(=O)c1c(C)nc2c(c1N)CC(=O)N2CCc1ccccc1` .
8.84

* * *

Answer each item with its documented growth.
Tested on: NCI-H522 lung
experiment: NCI-60 one-dose screen, 48 h (100 = growth as untreated, 0 = no growth, -100 = all killed)
condition-context: 10 µM unless noted
About 83,000 compounds went through this panel and 20% of them were active in at least one assay; those are over-represented in the sample as a whole. Active and inactive are the calls of the source. How the source made its calls: active means growth percent below 10; inactive means the rest.

Record request: growth value, item `CCCCCCCc1n(Cc2ccc3ccccc3c2)c2ccccc2[n+]1Cc1ccc2ccccc2c1`
-81.1% (active)

For the molecule shown here, `Cc1cc(C)c2nc(Nc3nc(C)c(C)c(=O)[nH]3)nc(C)c2c1` , give the reported growth.
7.15% (active)

What value of growth has been reported for the following molecule? `C#C[C@@]1(O)[C@@H](CO)O[C@@H](n2ccc3c(N)ncnc32)[C@@H]1O`
-18.4% (active)

What does the data say about its growth? Entry: `COc1cc(C(=O)Nc2cc(O)c(C/C=C(\C)CCC=C(C)C)c(O)c2)cc2c1O[C@]1(C)CC[C@@H](O)C(C)(C)[C@H]1C2`
18.8% (inactive)

Reported growth, molecule `Cc1cnc(SCc2ccc(Cl)cc2)[nH]c1=S` : ____
78.7% (inactive)

* * *

Please respond with reported growth for every item in the list.
Test system: MOLT-4 leukemia
experiment: NCI-60 one-dose screen, 48 h (100 = growth as untreated, 0 = no growth, -100 = all killed)
condition-context: 10 µM unless noted
This is part of a sample that, as a whole, favours compounds with a hit. Of some 83,000 tested, about 20% had one in any assay.
Expressed in %, but write only the number.

Sample c1ccc2c3c([nH]c2c1)C(c1ccc(C2NCCc4c2[nH]c2ccccc42)cc1)NCC3 (stereo not given) — what was its growth?
-62

GET /values?readout=growth&item= `CCCCn1c2cc(OCc3cn(-c4ccc(Cl)cc4)nn3)ccc2c2ccnc(C)c21`
6.26

Recorded growth of `C=C1C(=O)O[C@H]2[C@H]1CC/C(C=Nc1c(N)cc(C(F)(F)F)cc1Br)=C\CC[C@@]1(C)O[C@@H]21` , please.
-2.99

Please look up its growth: O=C(Nc1ccc(N=Cc2ccccc2O)cc1)NC1C=c2ccccc2=CC1 (stereo not given)
93

Please report the recorded growth for `O=C1C(=O)c2c(nc3ccc(Br)cn23)-c2ccccc21` .
-55.1

Consider the compound shown here: `O=C(O)CCNC1CCCCC1` What is its recorded growth?
103

Request the reported growth associated with `O=C1CCc2ccccc2N1`
110

Given `COc1ccc(-c2nnc(N3CCN(C(=O)CN4CCN(c5ccccc5)CC4)CC3)nc2-c2ccc(OC)cc2)cc1` , state its recorded growth.
-25.7

Could you tell me which growth is on file for COc1ccc2c(c1)C1(C(=O)N2)C(C#N)=C(c2ccccc2)Nc2c1c(-c1ccccc1)nn2-c1ccccc1 (stereo not given) ?
38.2

// lookup growth for `CC1CCN(CCCCCOc2ccc3oc4cc(Cl)ccc4c(=O)c3c2)CC1`
29.7
